# target.system: recombinant CYP-11 (Homo sapiens, UniProt P15538)
# Construct: expressed in transfected cells
# Sequence (P15538 25-503): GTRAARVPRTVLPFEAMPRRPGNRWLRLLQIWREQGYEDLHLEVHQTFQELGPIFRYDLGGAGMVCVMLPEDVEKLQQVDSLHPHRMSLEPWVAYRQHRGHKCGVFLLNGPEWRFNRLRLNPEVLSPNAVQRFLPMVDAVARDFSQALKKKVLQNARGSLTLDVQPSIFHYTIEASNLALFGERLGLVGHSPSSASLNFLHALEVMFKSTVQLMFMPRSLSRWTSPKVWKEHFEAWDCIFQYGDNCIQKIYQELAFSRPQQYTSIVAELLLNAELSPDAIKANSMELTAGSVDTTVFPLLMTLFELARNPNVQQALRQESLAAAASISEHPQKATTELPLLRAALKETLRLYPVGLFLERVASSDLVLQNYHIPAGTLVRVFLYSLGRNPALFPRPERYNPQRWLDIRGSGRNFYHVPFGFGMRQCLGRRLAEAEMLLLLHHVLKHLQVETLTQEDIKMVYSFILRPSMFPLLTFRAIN
# measurement.notes: Cyp11 assay: AD293 cells over-expressing recombinant CYP-11, cortisol formation from 11-deoxycortisol by LC/MS
# Format: cell-based
# stated.conditions: eight concentrations 10 μM to 4.5 nM
reported.metric: IC50 (nM)

O=S(=O)(CCC(F)(F)F)N1CCN(c2ccc(OC[C@@H]3CO[C@@](Cn4ccnc4)(c4ccc(Cl)cc4Cl)O3)cc2)CC1 [Entry 27]: 10000
COC(=O)[C@H](Cc1ccccc1)NC(=O)N1CCN(c2ccc(OC[C@@H]3CO[C@@](Cn4ccnc4)(c4ccc(Cl)cc4Cl)O3)cc2)CC1 [Entry 17]: 100

I = COC(=O)[C@@H](NC(=O)N1CCN(c2ccc(OC[C@@H]3CO[C@@](Cn4ccnc4)(c4ccc(Cl)cc4Cl)O3)cc2)CC1)C(C)C [Entry 16]
II = CCNC(=O)N1CCN(c2ccc(OC[C@@H]3CO[C@@](Cn4ccnc4)(c4ccc(Cl)cc4Cl)O3)cc2)CC1 [Entry 12]
III = Clc1ccc([C@]2(Cn3ccnc3)OC[C@@H](COc3ccc(N4CCN(C5=NCCO5)CC4)cc3)O2)c(Cl)c1 (racemic) [Entry 34]
Problem: List by increasing IC50. Give the labels in the order requested.
Solution: II, I, III
(II: 52 nM, I: 100 nM, III: 148 nM)
